Aspergillus fumigatus measurements of MIC50, listed per entry.
experimental-endpoint: MIC50 (µg/mL)

Consider the worked cases shown below.
INSERT INTO results (compound, unit_abbreviation, reported) VALUES
  ('Cn1cc(C(=O)NNc2ccccc2F)ccc1=O [Example 1]', 'µg/mL', 0.1),
  ('COc1ncc(NNC(=O)c2ccc(=O)n(-c3cccc(Cl)c3)c2)cc1F [Example 48]', 'µg/mL', 0.6),
  ('Cn1cc(C(=O)NNc2ccc(Cl)cc2Cl)ccc1=O [Example 15]', 'µg/mL', 1.95),
  ('O=C(NNc1ccc(F)cc1)c1c(Cl)cc(=O)n2c1CCC2 [Example 34]', 'µg/mL', 1),
  ('Cn1cc(C(=O)NNc2cccc(Cl)c2)cc(Cl)c1=O [Example 26]', 'µg/mL', 1),
  ('O=C(NNc1cccc(F)c1)c1c(Cl)cc(=O)n2c1CCC2 [Example 33]', 'µg/mL', 0.5);

a. Cn1cc(C(=O)NNc2cccc(F)c2)cc(Cl)c1=O [Example 24]
b. Cn1cc(C(=O)NNc2cc(F)cc(F)c2)ccc1=O [Example 13]
QUERY: Could you determine which record has the numerically smaller MIC50? Candidates: a and b Reply briefly: the label of your chosen item.
RESULT: b

1. Cn1cc(C(=O)NNc2ccc(S(=O)(=O)C(F)(F)F)cc2)ccc1=O [Example 10]
2. O=C(NNc1ccc(F)cc1F)c1ccc(=O)n(Cc2cscn2)c1 [Example 49]
QUERY: Could you determine which record has the numerically smaller MIC50? Candidates: 1 and 2 Reply briefly: the label of your chosen item.
RESULT: 1

* * *

Aspergillus fumigatus measurements of MIC50, listed per entry.
experimental-endpoint: MIC50 (µg/mL)

Consider the worked cases shown below.
INSERT INTO measurements (compound, measured_on, unit_abbreviation, reported) VALUES
  ('Cn1cc(C(=O)NNc2ccc(F)cc2F)ccc1=O [Example 11]', 'Aspergillus fumigatus', 'µg/mL', 0.05),
  ('COc1ncc(NNC(=O)c2cc(-c3ccc(F)cc3)c(=O)n(C)c2)cc1F [Example 37]', 'Aspergillus fumigatus', 'µg/mL', 0.3),
  ('COc1ncc(NNC(=O)c2ccc(=O)n(C)c2)cc1F [Example 21]', 'Aspergillus fumigatus', 'µg/mL', 0.5);

P. O=C(NNc1ccc(F)cc1F)c1ccc(=O)n(Cc2ccc(C(F)(F)F)nc2)c1 [Example 54]
Q. COc1ncc(NNC(=O)c2cc(-c3ccc(Cl)cc3)c(=O)n(C)c2)cc1F [Example 38]
QUERY: Of P and Q , which one carries the higher reported MIC50? Reply briefly: the label of your chosen item.
RESULT: P
(P: 0.7 µg/mL, Q: 0.3 µg/mL)

* * *

Aspergillus fumigatus measurements of MIC50, listed per entry.
experimental-endpoint: MIC50 (µg/mL)

INSERT INTO measurements (compound, unit_abbreviation, reported) VALUES
  ('O=C(NNc1cc(F)cc(F)c1)c1ccc(=O)n(Cc2ccc(C(F)(F)F)nc2)c1 [Example 53]', 'µg/mL', 0.7);

a. Cn1cc(C(=O)NNc2ccc(F)nc2)ccc1=O [Example 18]
b. COc1ncc(NNC(=O)c2cc(-c3ccc(C(F)(F)F)cc3)c(=O)n(C)c2)cc1F [Example 39]
QUERY: Of a and b , which one carries the higher reported MIC50? Reply briefly: the label of your chosen item.
RESULT: b
(b: 0.7 µg/mL, a: 0.4 µg/mL)
